These data points were gathered from ChEMBL document CHEMBL3585305.

assay-metric: pIC50
// returns pIC50 (minus log10 of molar concentration), number only

**Query** Form field - read-out: pIC50; system: Acetylcholinesterase (Electrophorus electricus, UniProt O42275); submitted item: Cc1c(C)c2ccc(OCCCCCNCc3ccccc3)cc2oc1=O
Sequence (O42275 whole entry): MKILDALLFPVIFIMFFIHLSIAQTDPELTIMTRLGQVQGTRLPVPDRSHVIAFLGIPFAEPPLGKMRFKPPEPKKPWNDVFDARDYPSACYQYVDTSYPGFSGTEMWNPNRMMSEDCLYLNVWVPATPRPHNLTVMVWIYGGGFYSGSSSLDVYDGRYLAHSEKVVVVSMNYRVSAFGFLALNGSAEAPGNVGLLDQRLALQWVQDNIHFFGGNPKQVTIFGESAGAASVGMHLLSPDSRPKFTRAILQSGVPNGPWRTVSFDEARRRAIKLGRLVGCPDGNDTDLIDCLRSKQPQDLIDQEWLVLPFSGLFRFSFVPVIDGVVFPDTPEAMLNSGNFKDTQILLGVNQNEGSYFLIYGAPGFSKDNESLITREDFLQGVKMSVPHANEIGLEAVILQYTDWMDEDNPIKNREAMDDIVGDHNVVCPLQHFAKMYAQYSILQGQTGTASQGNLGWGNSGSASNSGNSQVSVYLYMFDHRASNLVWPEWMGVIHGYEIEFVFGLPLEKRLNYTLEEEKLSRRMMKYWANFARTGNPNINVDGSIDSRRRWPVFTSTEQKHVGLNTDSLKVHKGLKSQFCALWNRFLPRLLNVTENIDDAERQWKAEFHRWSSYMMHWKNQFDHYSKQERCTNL
**Result** 6.03

**Query** Form field - read-out: pIC50; system: Acetylcholinesterase (Electrophorus electricus, UniProt O42275); submitted item: CN(Cc1ccc(C#N)cc1)Cc1ccc(COc2ccc3c(CO)cc(=O)oc3c2)cc1
**Result** 5.20

**Query** Form field - read-out: pIC50; system: Acetylcholinesterase (Electrophorus electricus, UniProt O42275); submitted item: CCN(CC)Cc1ccc(COc2ccc3ccc(=O)oc3c2)cc1
**Result** 5.54

**Query** Form field - read-out: pIC50; system: Acetylcholinesterase (Electrophorus electricus, UniProt O42275); submitted item: CN(Cc1cccc(Cl)c1)Cc1cccc(COc2ccc3ccc(=O)oc3c2)c1
**Result** 5.24

**Query** Form field - read-out: pIC50; system: Acetylcholinesterase (Electrophorus electricus, UniProt O42275); submitted item: Cc1c(C)c2ccc(OCc3ccc(CN(C)Cc4ccc(C#N)cc4)cc3)cc2oc1=O
**Result** 5.38

**Query** Form field - read-out: pIC50; system: Acetylcholinesterase (Electrophorus electricus, UniProt O42275); submitted item: Cc1c(C)c2ccc(OCCCCCN(C)Cc3ccc(C#N)cc3)cc2oc1=O
**Result** 5.55

**Query** Form field - read-out: pIC50; system: Acetylcholinesterase (Electrophorus electricus, UniProt O42275); submitted item: Cc1cc2ccc(OCc3ccc(CN(C)Cc4cccc(Cl)c4)cc3)cc2oc1=O
**Result** 5.89

**Query** Form field - read-out: pIC50; system: Acetylcholinesterase (Electrophorus electricus, UniProt O42275); submitted item: CN(Cc1ccccc1)Cc1ccc(COc2ccc3ccc(=O)[nH]c3c2)cc1
**Result** 6.31

**Query** Form field - read-out: pIC50; system: Acetylcholinesterase (Electrophorus electricus, UniProt O42275); submitted item: Cc1cc(=O)oc2cc(OCc3ccc(CN(C)Cc4ccccc4)cc3)ccc12
**Result** 6.74

**Query** Form field - read-out: pIC50; system: Acetylcholinesterase (Electrophorus electricus, UniProt O42275); submitted item: Cc1cc2ccc(OCc3ccc(CN(C)Cc4ccccc4)cc3)cc2oc1=O
**Result** 6.59

**Query** Form field - read-out: pIC50; system: Acetylcholinesterase (Electrophorus electricus, UniProt O42275); submitted item: CN(C)Cc1ccc(COc2ccc3ccc(=O)oc3c2)cc1
**Result** 5.15

**Query** Form field - read-out: pIC50; system: Acetylcholinesterase (Electrophorus electricus, UniProt O42275); submitted item: CN(Cc1ccc(C#N)cc1)Cc1ccc(COc2ccc3ccc(=O)oc3c2)cc1
**Result** 5.25

**Query** Form field - read-out: pIC50; system: Acetylcholinesterase (Electrophorus electricus, UniProt O42275); submitted item: CCN(CCCCCOc1ccc2c(C)c(C)c(=O)oc2c1)Cc1ccccc1
**Result** 6.12

**Query** Form field - read-out: pIC50; system: Acetylcholinesterase (Electrophorus electricus, UniProt O42275); submitted item: CN(Cc1ccc(COc2ccc3ccc(=O)oc3c2)cc1)Cc1cccc(Cl)c1
**Result** 6.23

**Query** Form field - read-out: pIC50; system: Acetylcholinesterase (Electrophorus electricus, UniProt O42275); submitted item: CCN(CC)Cc1cccc(COc2ccc3ccc(=O)oc3c2)c1
**Result** 5.77

**Query** Form field - read-out: pIC50; system: Acetylcholinesterase (Electrophorus electricus, UniProt O42275); submitted item: O=c1cc(CO)c2ccc(OCc3ccc(CNCc4ccccc4)cc3)cc2o1
**Result** 6.36
